Measured values drawn from patent US20250250357A1 for this set.

# STUDY_SYSTEM: T1, human MSLN on OVCAR3 tumor cells (human, UniProt Q13421 296-598)
# T1 construct: whole, on cells; also called human MSLN protein
# T1 sequence (Q13421 other isoform, or with tags, fused parts or gaps): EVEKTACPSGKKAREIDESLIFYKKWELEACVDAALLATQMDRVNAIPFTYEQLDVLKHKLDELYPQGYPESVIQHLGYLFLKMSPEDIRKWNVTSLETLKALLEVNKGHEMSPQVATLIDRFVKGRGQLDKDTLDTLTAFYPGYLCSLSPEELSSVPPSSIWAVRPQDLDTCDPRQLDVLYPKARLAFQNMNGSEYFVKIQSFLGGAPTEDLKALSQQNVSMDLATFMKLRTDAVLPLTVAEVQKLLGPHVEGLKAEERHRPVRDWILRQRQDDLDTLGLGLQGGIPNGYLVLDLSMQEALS
# PROTOCOL: FACS, OVCAR3 cells
MEASURED_QUANTITY: Maximum_MFI (MFI)
# output: bare number, implied unit MFI

Query: Name the recorded Maximum_MFI of the item F2.23.12-H4 (scFv, not shown: small tags and cut ends, also called S009-F2.23.12 humanized antibody VH1 + VL4) scFv: EVQLVQSGAEVKKPGASVKVSCKASGYTFTNYWMHWVRQAPGQGLEWMGNINPSNGGPYYNERFRSRVTMTVDKSTSTVYMELSSLRSEDTAVYYCARPYYGSSYGYFDYWGQGTTVTVSSGGGGSGGGGSGGGGSDIQMTQSPSSLSASVGDRVTITCKASQDINKYIAWYQHKPGKAPKLLIHYTSELQPGVPSRFSGSGSGRDYTFTISSLQPEDIATYYCLQYANPLRTFGGGTKVEIK in your answer.
Reply: 3630

Query: Name the recorded Maximum_MFI of the item F2.23.12-H8 (scFv, not shown: small tags and cut ends, also called S009-F2.23.12 humanized antibody VH2 + VL4) scFv: EVQLVQSGAEVKKPGASVKVSCKASGYTFTNYWMHWVRQAPGQGLEWMGNINPSNGGPYYNERFRSRVTMTVDKSTSTAYMELSSLRSEDTAVYYCARPYYGSSYGYFDYWGQGTTVTVSSGGGGSGGGGSGGGGSDIQMTQSPSSLSASVGDRVTITCKASQDINKYIAWYQHKPGKAPKLLIHYTSELQPGVPSRFSGSGSGRDYTFTISSLQPEDIATYYCLQYANPLRTFGGGTKVEIK in your answer.
Reply: 3040
